# target.or.system: HDAC6 human recombinant (Homo sapiens, UniProt Q9UBN7)
# Sequence (Q9UBN7 whole entry): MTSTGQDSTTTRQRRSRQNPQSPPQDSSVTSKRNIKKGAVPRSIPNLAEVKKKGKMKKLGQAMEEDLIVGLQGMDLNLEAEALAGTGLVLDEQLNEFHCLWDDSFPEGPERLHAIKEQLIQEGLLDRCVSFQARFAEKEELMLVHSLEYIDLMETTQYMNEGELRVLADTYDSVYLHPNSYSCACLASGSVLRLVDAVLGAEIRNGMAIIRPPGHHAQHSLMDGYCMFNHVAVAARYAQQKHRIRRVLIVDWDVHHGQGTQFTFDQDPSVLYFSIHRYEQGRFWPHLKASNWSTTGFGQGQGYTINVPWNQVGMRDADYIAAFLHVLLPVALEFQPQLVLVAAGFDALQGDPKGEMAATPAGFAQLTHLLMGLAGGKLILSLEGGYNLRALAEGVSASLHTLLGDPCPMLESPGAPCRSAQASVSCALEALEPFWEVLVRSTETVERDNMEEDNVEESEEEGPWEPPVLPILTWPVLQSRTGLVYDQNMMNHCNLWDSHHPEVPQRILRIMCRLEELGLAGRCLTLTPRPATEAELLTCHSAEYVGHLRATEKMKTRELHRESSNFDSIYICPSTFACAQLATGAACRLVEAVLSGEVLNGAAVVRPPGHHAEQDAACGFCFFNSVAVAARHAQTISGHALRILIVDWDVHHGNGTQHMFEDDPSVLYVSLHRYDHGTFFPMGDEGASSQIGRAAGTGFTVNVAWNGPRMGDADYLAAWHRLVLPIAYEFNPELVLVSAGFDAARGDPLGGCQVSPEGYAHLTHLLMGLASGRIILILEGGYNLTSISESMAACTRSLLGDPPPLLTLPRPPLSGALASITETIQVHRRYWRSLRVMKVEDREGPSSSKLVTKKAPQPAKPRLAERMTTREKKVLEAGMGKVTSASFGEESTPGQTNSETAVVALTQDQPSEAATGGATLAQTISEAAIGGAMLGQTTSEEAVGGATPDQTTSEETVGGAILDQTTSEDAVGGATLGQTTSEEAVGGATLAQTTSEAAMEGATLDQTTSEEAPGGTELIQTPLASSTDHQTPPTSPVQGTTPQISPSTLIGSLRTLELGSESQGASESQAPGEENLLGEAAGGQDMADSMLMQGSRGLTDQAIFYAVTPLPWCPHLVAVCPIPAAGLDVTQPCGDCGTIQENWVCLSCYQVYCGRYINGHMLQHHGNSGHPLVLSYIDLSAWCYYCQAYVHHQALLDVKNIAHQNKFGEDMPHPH
# protocol: HDAC6 inhibitory activity, fluorometric kit
# study.conditions: Class II
assay.endpoint: IC50 (nM)
Write the number in nM without appending the unit.

>>> numeric_result("COc1ccc2oc(=O)c(-c3csc(NC(=O)c4ccc(O)c(O)c4)n3)cc2c1")
581
>>> numeric_result("O=C(O)CCCCC(=O)Nc1nc(-c2cc3cc(Br)ccc3oc2=O)cs1")
6340
>>> numeric_result("COc1ccc2oc(=O)c(-c3csc(NC(=O)CCCCC(=O)O)n3)cc2c1")
2430
>>> numeric_result("O=C(CCCCC(=O)Nc1nc(-c2cc3cc(Br)ccc3oc2=O)cs1)NO")
80.2
>>> numeric_result("O=C(CCCCC1CCSS1)Nc1nc(-c2cc3ccccc3oc2=O)cs1 (stereo not drawn)")
153

Now look at this one.
Prompt line: Which IC50 is reported with HDAC6 human recombinant (Homo sapiens, UniProt Q9UBN7) for this entry: O=C(CCCCC(=O)Nc1nc(-c2cc3ccccc3oc2=O)cs1)NO ?
Response line: 98.3

* * *

# protocol: Cytotoxicity assay (Alamar Blue) in cardiac fibroblasts
# Format: cell-based, rat
# study.conditions: Sprague-Dawley, rat, primary neonatal rat cardiac fibroblasts (CFs), CFs treated for 48 h
Label met when CC50 at 48 h is strictly below 100 µM; otherwise label not met.

Worked examples follow.
>>> label_value("O=C(CCCCC1CCSS1)Nc1nc(-c2cc3cc(Br)ccc3oc2=O)cs1 (stereo not shown) [Compound 5b]")
"not met"
>>> label_value("O=C(O)CCCCC(=O)Nc1nc(-c2cc3ccccc3oc2=O)cs1 [Compound 7a]")
"not met"
>>> label_value("COc1ccc2oc(=O)c(-c3csc(NC(=O)c4ccc(O)c(O)c4)n3)cc2c1 [Compound 6c]")
"not met"
>>> label_value("O=C(CCCCC1CCSS1)Nc1nc(-c2cc3ccccc3oc2=O)cs1 (stereo not shown) [Compound 5a]")
"not met"
>>> label_value("O=C(CCCCC(=O)Nc1nc(-c2cc3cc(Br)ccc3oc2=O)cs1)NO [Compound 8b]")
"met"

Attention now turns to another entry.
Prompt line: Determine whether this compound shows CC50 at 48 h lower than 100 µM (ties excluded): O=C(O)CCCCC(=O)Nc1nc(-c2cc3cc(Br)ccc3oc2=O)cs1 [Compound 7b]
Response line: met

* * *

# target.or.system: HDAC6 human recombinant (Homo sapiens, UniProt Q9UBN7)
# protocol: HDAC6 inhibitory activity, fluorometric kit
# study.conditions: Class II
assay.endpoint: IC50 (µM)
The figure you give is taken to be in µM; do not add the unit.

>>> numeric_result("O=C(CCCCC1CCSS1)Nc1nc(-c2cc3cc(Br)ccc3oc2=O)cs1 (stereo not drawn)")
0.123
>>> numeric_result("O=C(O)CCCCC(=O)Nc1nc(-c2cc3ccccc3oc2=O)cs1")
5.59

Prompt line: Item under review: O=C(Nc1nc(-c2cc3cc(Br)ccc3oc2=O)cs1)c1ccc(O)c(O)c1 . Reported IC50?
Response line: 0.449

* * *

# target.or.system: HDAC1 human recombinant (Homo sapiens)
# protocol: HDAC1 inhibitory activity, fluorometric kit
# study.conditions: Class I
Field: label. Allowed values: TRUE (IC50 < 3000 nM) or FALSE (IC50 >= 3000 nM).

>>> label_value("COc1ccc2oc(=O)c(-c3csc(NC(=O)c4ccc(O)c(O)c4)n3)cc2c1 [Compound 6c]")
"TRUE"
>>> label_value("O=C(Nc1nc(-c2cc3ccccc3oc2=O)cs1)c1ccc(O)c(O)c1 [Compound 6a]")
"TRUE"
>>> label_value("O=C(O)CCCCC(=O)Nc1nc(-c2cc3ccccc3oc2=O)cs1 [Compound 7a]")
"FALSE"
>>> label_value("O=C(CCCCC(=O)Nc1nc(-c2cc3ccccc3oc2=O)cs1)NO [Compound 8a]")
"TRUE"

Prompt line: I'd appreciate it if you could check whether COc1ccc2oc(=O)c(-c3csc(NC(=O)CCCCC(=O)O)n3)cc2c1 [Compound 7c] has IC50 smaller than 3000 nM.
Response line: FALSE

* * *

# Test system: neonatal rat cardiac fibroblasts (CFs)
# protocol: Cytotoxicity assay (Alamar Blue) in cardiac fibroblasts
# Assay type: cell-based
# study.conditions: CFs treated for 48 h
assay.endpoint: CC50 (µM)
Provide the reading as a plain figure in µM.

Prompt line: Query (compound): O=C(CCCCC(=O)Nc1nc(-c2cc3cc(Br)ccc3oc2=O)cs1)NO [Compound 8b] ; field requested: CC50
Response line: 72.5

* * *

# target.or.system: HDAC1 human recombinant (Homo sapiens, UniProt Q13547)
# Sequence (Q13547 whole entry): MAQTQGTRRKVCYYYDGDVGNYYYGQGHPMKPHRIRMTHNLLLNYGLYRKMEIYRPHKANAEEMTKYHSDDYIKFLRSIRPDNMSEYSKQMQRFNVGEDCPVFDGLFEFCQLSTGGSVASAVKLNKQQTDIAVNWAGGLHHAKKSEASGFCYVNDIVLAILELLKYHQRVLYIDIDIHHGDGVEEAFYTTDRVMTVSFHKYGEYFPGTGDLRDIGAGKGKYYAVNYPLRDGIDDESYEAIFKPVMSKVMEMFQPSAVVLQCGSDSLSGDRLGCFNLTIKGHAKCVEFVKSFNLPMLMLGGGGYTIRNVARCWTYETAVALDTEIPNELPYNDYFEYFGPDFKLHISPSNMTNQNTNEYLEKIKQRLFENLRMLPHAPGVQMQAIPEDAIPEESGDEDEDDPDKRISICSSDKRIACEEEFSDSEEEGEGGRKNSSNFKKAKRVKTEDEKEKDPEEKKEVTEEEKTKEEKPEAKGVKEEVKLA
# protocol: HDAC1 inhibitory activity, fluorometric kit
# study.conditions: Class I
pIC50: −log10 of the molar value.
Please note: Yes applies when pIC50 is 7 or greater, and No applies otherwise.

// below: answered compounds
>>> label_value("O=C(CCCCC1CCSS1)Nc1nc(-c2cc3ccccc3oc2=O)cs1 (stereo not shown)")
"Yes"
>>> label_value("COc1ccc2oc(=O)c(-c3csc(NC(=O)CCCCC4CCSS4)n3)cc2c1 (stereo not shown)")
"Yes"
>>> label_value("O=C(CCCCC(=O)Nc1nc(-c2cc3cc(Br)ccc3oc2=O)cs1)NO")
"Yes"
>>> label_value("O=C(Nc1nc(-c2cc3cc(Br)ccc3oc2=O)cs1)c1ccc(O)c(O)c1")
"No"
>>> label_value("O=C(CCCCC1CCSS1)Nc1nc(-c2cc3cc(Br)ccc3oc2=O)cs1 (stereo not shown)")
"Yes"
>>> label_value("COc1ccc2oc(=O)c(-c3csc(NC(=O)CCCCC(=O)NO)n3)cc2c1")
"Yes"

API: the following record is the query input.
Prompt line: API: above_or_equal(metric=pIC50, cutoff=7) for item O=C(O)CCCCC(=O)Nc1nc(-c2cc3cc(Br)ccc3oc2=O)cs1
Response line: No

* * *

Listing of recorded CC50 at 48 h by entry.
# protocol: Cytotoxicity assay (Alamar Blue) in cardiac fibroblasts
# Type: cell-based, rat
# study.conditions: Sprague-Dawley, rat, primary neonatal rat cardiac fibroblasts (CFs), CFs treated for 48 h

>>> result("COc1ccc2oc(=O)c(-c3csc(NC(=O)CCCCC4CCSS4)n3)cc2c1 (centres unmarked) [Compound 5c]")
"171 µM"
>>> result("O=C(Nc1nc(-c2cc3ccccc3oc2=O)cs1)c1ccc(O)c(O)c1 [Compound 6a]")
"140 µM"
>>> result("O=C(CCCCC(=O)Nc1nc(-c2cc3ccccc3oc2=O)cs1)NO [Compound 8a]")
"90.5 µM"
>>> result("COc1ccc2oc(=O)c(-c3csc(NC(=O)CCCCC(=O)NO)n3)cc2c1 [Compound 8c]")
"86.5 µM"

Proceed to the following item.
Prompt line: Report CC50 at 48 h for O=C(Nc1nc(-c2cc3cc(Br)ccc3oc2=O)cs1)c1ccc(O)c(O)c1 [Compound 6b] please.
Response line: 102 µM

* * *

assay.endpoint: melting point

>>> result("O=C(CCCCC1CCSS1)Nc1nc(-c2cc3cc(Br)ccc3oc2=O)cs1 (centres unmarked)")
"150 to 153 °C"
>>> result("COc1ccc2oc(=O)c(-c3csc(NC(=O)CCCCC(=O)NO)n3)cc2c1")
"125 to 127 °C (dec.)"

Prompt line: Can you look up the measured melting point of O=C(CCCCC(=O)Nc1nc(-c2cc3ccccc3oc2=O)cs1)NO for me?
Response line: 150 to 152 °C (dec.)

Prompt line: Quick one: melting point of COc1ccc2oc(=O)c(-c3csc(NC(=O)CCCCC4CCSS4)n3)cc2c1 (centres unmarked) ?
Response line: 83 to 84 °C

Prompt line: Item O=C(CCCCC1CCSS1)Nc1nc(-c2cc3ccccc3oc2=O)cs1 (centres unmarked) has what recorded melting point?
Response line: 91 to 92 °C

* * *

# target.or.system: HDAC6 human recombinant (Homo sapiens)
# protocol: HDAC6 inhibitory activity, fluorometric kit
# study.conditions: Class II
assay.endpoint: IC50 (nM)
Use nM as the unit, but write only the number.

Here's what some known entries look like.
>>> numeric_result("COc1ccc2oc(=O)c(-c3csc(NC(=O)CCCCC(=O)NO)n3)cc2c1 [Compound 8c]")
62.6
>>> numeric_result("COc1ccc2oc(=O)c(-c3csc(NC(=O)CCCCC4CCSS4)n3)cc2c1 (stereo not drawn) [Compound 5c]")
84.1

Prompt line: State the recorded IC50 for this entry: O=C(Nc1nc(-c2cc3ccccc3oc2=O)cs1)c1ccc(O)c(O)c1 [Compound 6a]
Response line: 276
